Molecular target: PARP2 (Homo sapiens, UniProt Q9UGN5)
Sequence (Q9UGN5 whole entry, species assumed): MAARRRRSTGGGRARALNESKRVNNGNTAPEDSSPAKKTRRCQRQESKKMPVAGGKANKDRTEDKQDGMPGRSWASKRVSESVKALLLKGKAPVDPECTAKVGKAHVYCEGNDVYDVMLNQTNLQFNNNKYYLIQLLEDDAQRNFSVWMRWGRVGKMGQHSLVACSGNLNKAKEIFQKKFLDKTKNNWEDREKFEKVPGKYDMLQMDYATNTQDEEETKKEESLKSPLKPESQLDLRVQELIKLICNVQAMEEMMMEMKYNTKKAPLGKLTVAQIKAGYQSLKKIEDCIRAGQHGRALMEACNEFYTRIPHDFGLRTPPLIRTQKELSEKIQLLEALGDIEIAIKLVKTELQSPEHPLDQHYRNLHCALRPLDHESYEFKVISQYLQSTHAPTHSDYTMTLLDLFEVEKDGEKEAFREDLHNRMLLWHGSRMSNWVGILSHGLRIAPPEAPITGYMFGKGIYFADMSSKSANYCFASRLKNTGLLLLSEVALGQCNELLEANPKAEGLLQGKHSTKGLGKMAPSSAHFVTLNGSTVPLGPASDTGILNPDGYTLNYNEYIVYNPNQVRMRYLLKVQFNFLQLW
Assay: PARP2 chemiluminescent assay
Assay type: biochemical
Conditions: recombinant PARP2 enzyme activity, chemiluminescence
Method: Mix the solution of recombinant poly ADP ribotransferase 1 and 2 (PARP1 and PARP2) (40 ng enzyme/well) and the compounds to be tested, respectively. And then added to a 96-well plate coated with […] mixture, incubated at room temperature for 1 h. Then add 50 μL 0.3 ng/mL Streptavidin-HRP to each well. […] Finally, the plates were treated with streptavidin-HRP followed by addition of the ELISA ECL substrate to produce chemiluminescence that can then be measured using a chemiluminescence reader. […]
observation.type: IC50

Data request: Tell me the measured IC50 of CCNC(=O)c1ccc(N2CCN(Cc3ccc4c(=O)n(CC)c(=O)[nH]c4c3)CC2)c(C)n1 , please.
Data returned: > 1000 nM

Data request: Now this one: CCn1c(=O)[nH]c2cc(CN3CCN(c4ccc(C(N)=O)nc4F)CC3)ccc2c1=O
Data returned: 100 to 1000 nM

Data request: Now this one: CCn1c(=O)[nH]c2cc(CN3CCN(c4ccc(C(=O)NC)nc4)CC3)cnc2c1=O
Data returned: 100 to 1000 nM

Data request: Now this one: CCn1c(=O)[nH]c2cc(CN3CCN(c4ccc(C(=O)NC)nc4C)CC3)ccc2c1=O
Data returned: > 1000 nM

Data request: Now this one: CCNC(=O)c1ccc(N2CCN(Cc3ccc4c(=O)n(CC)c(=O)[nH]c4c3)CC2)c(F)n1
Data returned: 100 to 1000 nM

Data request: Now this one: CCc1nc(C(=O)NC)ccc1N1CCN(Cc2ccc3c(=O)n(CC)c(=O)[nH]c3c2)CC1
Data returned: > 1000 nM

Data request: Now this one: CCn1c(=O)[nH]c2cc(CN3CCN(c4ccc(C(=O)NC5CC5)nc4F)CC3)ccc2c1=O
Data returned: 100 to 1000 nM

Data request: Now this one: CCn1c(=O)[nH]c2cc(CN3CCN(c4ncc(C(=O)NC)cn4)CC3)ccc2c1=O
Data returned: 10 to 100 nM

----------
Please respond with reported IC50 for every item in the list.
target: PARP2 (Homo sapiens, UniProt Q9UGN5); experiment: PARP2 chemiluminescent assay; assay type: biochemical; conditions: recombinant PARP2 enzyme activity, chemiluminescence

Data request: Tell me the measured IC50 of CCn1c(=O)[nH]c2cc(CN3CCN(c4ccc(C(=O)NC)nc4F)CC3)c(F)cc2c1=O [Example 14] , please.
Data returned: 100 to 1000 nM

Data request: Now this one: CCn1c(=O)[nH]c2cc(CN3CCN(c4ccc(C(=O)NC)nc4C)CC3)cnc2c1=O [Example 4]
Data returned: > 1000 nM

Data request: Now this one: CNC(=O)c1ccc(NC(=O)c2cccc(-c3ccc4c(=O)n(C(C)C)c(=O)[nH]c4c3)c2)cn1 [Example 42]
Data returned: > 1000 nM

Data request: Now this one: CCn1c(=O)[nH]c2cc(CN3CCN(c4ccc(C(=O)NC(C)C)nc4F)CC3)ccc2c1=O [Example 34]
Data returned: 100 to 1000 nM

Data request: Now this one: CNC(=O)c1ccc(N2CCN(Cc3ccc4c(=O)n(C)c(=O)[nH]c4c3)CC2)c(F)n1 [Example 17]
Data returned: > 1000 nM

Data request: Now this one: CCn1c(=O)[nH]c2cc(CN3CCN(c4ccc(C(=O)NC)nc4Cl)CC3)c(F)cc2c1=O [Example 61]
Data returned: > 1000 nM

Data request: Now this one: CCCn1c(=O)[nH]c2cc(CN3CCN(c4ccc(C(=O)NC)nc4F)CC3)ccc2c1=O [Example 19]
Data returned: > 1000 nM

Data request: Now this one: CCn1c(=O)[nH]c2cc(CN3CCN(c4ccc(C(=O)NC)nc4)CC3)ccc21 [Example 16]
Data returned: > 1000 nM
